Test system: MOLT-4 leukemia
method: NCI tumour cell line growth inhibition, 48 h
measurement type: TGI (µM)
Record the value in µM, omitting the unit from your answer.

Example entries begin here.
compound: CCCCCCc1cc2cc(C(=O)Nc3nc(C45CC6CC(CC(C6)C4)C5)cs3)c(=O)oc2cc1O
TGI (µM): 49.5
--
compound: C=C(C)[C@@H]1CC[C@]2(C(=O)OC)CC[C@]3(C)[C@H](CC[C@@H]4[C@@](C)(CCc5nn[nH]n5)[C@H](C(=C)C)CC[C@]43C)[C@@H]12
TGI (µM): 40.8
--
compound: O=C(O)CN(CCN(CC(=O)O)CC(=O)O)CCN(CC(=O)O)CC(=O)O
TGI (µM): 8.26
--
compound: O=C1/C(=C/c2cc(O)c(O)c(O)c2)Oc2cc(O)cc(OC3OC(CO)C(O)C(O)C3O)c21 (stereo unspecified)
TGI (µM): 43.4
--
compound: CN1CCN(c2cc(F)c(NC3=C(Cl)C(=O)c4ncccc4C3=O)c(F)c2)CC1
TGI (µM): 8.83
--
compound: Oc1ccc(CCNc2nc3ccccc3c3[nH]c4ccccc4c23)cc1O
TGI (µM): 5.38
--
compound: O=C(Nc1ccccc1/C=C/c1n[nH]c2ccccc12)c1ccccc1
TGI (µM): 38.2
--
compound: CN1CCN(c2ccc3nc(-c4[nH]ncc4Nc4ncnc5[nH]ccc45)[nH]c3c2)CC1
TGI (µM): 14.4

Exercise: What value of measured TGI is listed for `N#CSc1c[nH]c2ccc(/C=C/C(=O)/C=C(O)/C=C/c3ccc4[nH]cc(SC#N)c4c3)cc12` ?
Solution: 5.44

Exercise: Quick one: TGI of O=[N+]([O-])c1ccc(Cl)c(C2CC(c3cccc4ccccc34)=Nc3ccccc3S2=O)c1 (stereo unspecified) ?
Solution: 62.8

* * *

TGI overview
System: NCI-H226 lung
method: NCI tumour cell line growth inhibition, 48 h

Exercise: For COc1cccc(C2CC(C)(O)Oc3cc4c(cc32)OCO4)c1 (stereo not given) , what is its reported TGI?
Solution: 53 µM

Exercise: Request the reported TGI associated with CN(C)CC1CCC/C(=C\c2ccc(Cl)c(Cl)c2)C1=O (stereo not given)
Solution: 24.5 µM

* * *

System: OVCAR-5 ovarian
method: NCI tumour cell line growth inhibition, 48 h
measurement type: TGI

Consider the following illustrative entries.
compound: O=c1c(-c2cccc3ccccc23)c(-c2cccc3ccccc23)c1=O
assay target: OVCAR-5 ovarian
TGI: > 84.9 µM

compound: O=C1O/C(=C(\Br)c2ccc([N+](=O)[O-])cc2)c2ccccc21
assay target: OVCAR-5 ovarian
TGI: > 100 µM

compound: O=C(Nc1ccccc1/C=C/c1n[nH]c2ccccc12)c1ccccc1
assay target: OVCAR-5 ovarian
TGI: 12.9 µM

compound: COc1ccc(CC(C)NCC(O)c2ccc(O)c(NC=O)c2)cc1 (stereo not drawn)
assay target: OVCAR-5 ovarian
TGI: > 100 µM

compound: CCOC(=O)N1CCC2(CC1)C[C@](Sc1ccccc1)(C(C)=O)[C@H](C)O2
assay target: OVCAR-5 ovarian
TGI: > 100 µM

compound: C[N+](C)(N)Cc1nc(-c2ccc(Cl)cc2)no1
assay target: OVCAR-5 ovarian
TGI: > 100 µM

compound: CN1CCC2(CC1)C(=O)Nc1cc(NC(=O)c3ccc4c(c3)C[C@@H]3C(C)(C)[C@H](O)[C@H](F)C[C@@]3(C)O4)ccc12
assay target: OVCAR-5 ovarian
TGI: > 100 µM

API: the following record is the query input.
Exercise: Name the recorded TGI for O=C1CC(Nc2ccccc2)c2c(Cl)sc(Cl)c21 (stereo not drawn) .
Solution: 6.23 µM
